- ASSAY: chemical genetic growth profiling, strain panel (AID 1159580);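 also: tested at 20 µM; growth read once vehicle control cultures reached saturation at 30 °C; 1 = growth at the plate median or of vehicle wells; lower values mean less growth of the strain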
- ASSAY_SETUP: S. cerevisiae deletion strains, growth OD, locus YCL069W, strain vba3, stronger effect = lower value
Screen size: about 5,500 compounds; about 2,000 (36%) were called active. Inconclusive results (about 18%) are left out. The list shows a part of the results.
# key: entry, value: normalized growth

# COMPOUND, MEASUREMENT_KIND, RESULT
records = [
    ("CC(C)c1c(C(=O)c2ccccc2)c(-c2ccccc2)c(-c2ccc(F)cc2)n1CC[C@@H](O)C[C@@H](O)CC(=O)O", "normalized growth", "0.934 (inactive)"),
    ("CO[C@H]1[C@H](O)[C@H](O[C@H]2CC[C@]3(C)C4CC[C@]5(C)C(C6=CC(=O)OC6)CC[C@]5(O)C4CC[C@@H]3C2)O[C@@H](C)[C@@H]1O (some centres not stated)", "normalized growth", "1 (inactive)"),
    ("c1ccc(N=Nc2ccccc2)cc1", "normalized growth", "0.988 (inactive)"),
]

Would you mind telling me what normalized growth value was observed for CC(=O)O[C@@H]1C[C@@]2(C)C(CC[C@@H]2C(C)=O)C2CCC3=CC(=O)CC[C@]3(C)C21 (some centres not stated) ?
1.02 (inactive)

Entry under review: CCC(=O)O[C@H]1CCC2C3CCC4=CC(=O)CC[C@]4(C)C3CC[C@@]21C (some centres not stated) . Reported normalized growth?
0.962 (inactive)

I have this compound here, C[C@]12CCC(=O)C=C1CCC1C2CC[C@@]2(C)C1CC[C@@H]2O (some centres not stated) , and I need its recorded normalized growth.
0.999 (inactive)

Look up normalized growth for this compound: CC(=O)NC1SCCC1=O (configuration not stated)
0.981 (inactive)
